// values below are reported solubility
test_description: Solubility in water
Type: physicochemical
condition_summary: water; read-out: solubility

Query: Any idea what its solubility is? The compound is "CCCCC(=O)N[C@H]1[C@H]([C@H](O)[C@H](O)Cc2ccc(-c3ccccc3)cc2)OC(C(=O)OC)=C[C@@H]1O"
Result: ≥ 10000 µg/mL

Query: Would you mind doing "CCCCC(=O)NC[C@@H](O)[C@@H](O)[C@@H]1OC(C(=O)OC)=C[C@H](O)[C@H]1NC(C)=O" as well?
Result: ≥ 1000 µg/mL
